Cited source: ChEMBL document CHEMBL4028883

- MEASUREMENT_DESCRIPTION: Volume of distribution at steady state in rabbit at 0.5 mg/kg
- Assay type: ADME, organism-based, Oryctolagus cuniculus
- MEASUREMENT_CONTEXT: in vivo, read-out: Vdss
QUANTITY_NAME: Vd

[ask] Dear colleague, please send me the reported Vd for CN1CCN(c2cccc3c2CCN(C(=O)/C=C/c2c(-n4cnnn4)ccc(Cl)c2F)[C@@H]3C(=O)Nc2ccc(C(=O)O)cc2)C(=O)C1 when you can.
[reply] 0.71 L/kg

====

- MEASUREMENT_DESCRIPTION: Half life in rabbit at 0.5 mg/kg
- Type: ADME, organism-based, Oryctolagus cuniculus
- MEASUREMENT_CONTEXT: in vivo
QUANTITY_NAME: half-life (min)
Please state the figure in min; there is no need to write the unit.

[ask] Dear colleague, please send me the reported half-life for CN1CCN(c2cccc3c2CCN(C(=O)/C=C/c2c(-n4cnnn4)ccc(Cl)c2F)[C@@H]3C(=O)Nc2ccc(C(=O)O)cc2)C(=O)C1 [BMS-962212] when you can.
[reply] 36

====

- MEASUREMENT_DESCRIPTION: Aqueous solubility of the compound at pH 8.5
- Type: physicochemical
- MEASUREMENT_CONTEXT: aqueous medium
QUANTITY_NAME: solubility

[ask] Dear colleague, please send me the reported solubility for CN1CCN(c2cccc3c2CCN(C(=O)/C=C/c2c(-n4cnnn4)ccc(Cl)c2F)[C@@H]3C(=O)Nc2ccc(C(=O)O)cc2)C(=O)C1 [BMS-962212] when you can.
[reply] > 100 mg/mL

====

- MEASUREMENT_DESCRIPTION: Volume of distribution at steady state in cynomolgus monkey at 2.03 mg/kg
- Format: ADME, organism-based, Macaca fascicularis
- MEASUREMENT_CONTEXT: in vivo, read-out: Vdss
QUANTITY_NAME: Vd (L/kg)
Please state the figure in L/kg; there is no need to write the unit.

[ask] Dear colleague, please send me the reported Vd for CN1CCN(c2cccc3c2CCN(C(=O)/C=C/c2c(-n4cnnn4)ccc(Cl)c2F)[C@@H]3C(=O)Nc2ccc(C(=O)O)cc2)C(=O)C1 [BMS-962212] when you can.
[reply] 1.16
